The values you see were collected from the supplement of paper PMC10065799.

tested on: c-Abl (mouse); assay: phosphorylation enrichment, bacterial display (enrichment ratio); higher = better substrate or ligand; peptides without Tyr show the background;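 note: 11-residue human phosphosite peptides and single-mutation variants displayed on the E. coli surface, counted by deep sequencing, each peptide's frequency after selection divided by its frequency in the unselected input library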;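 note: frequency after pTyr selection over input frequency; kinase dosed for 20-30% of maximal phosphorylation in three min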
Output Met for phosphorylation enrichment not less than 0.8; output Not met otherwise.

Examples with answers:
AAYNKYDQERF [CDC73_Y293_R292K] = Not met
SVVVPYELPEV [TP53_Y220_P222L] = Met
PAQAAYQKVVA [HBB_Y131_V127A] = Not met
GIMEEYQLPYY [BMPR1A_Y453_V450M] = Met
AVARPYHIQKW [ACSBG1_Y677_A673V] = Not met

Could you tell me if the measured phosphorylation enrichment of RHLREYQDLLN [DES_Y388] reaches 0.8 or more?
Met

Could you tell me if the measured phosphorylation enrichment of WSRAMYPDLGP [STARD8_Y330] reaches 0.8 or more?
Not met

Could you tell me if the measured phosphorylation enrichment of ATDLAYFLVRE [ASL_Y375_K380E_YF] reaches 0.8 or more?
Met

Could you tell me if the measured phosphorylation enrichment of ENGPYYTSYPP [GDAP2_Y488] reaches 0.8 or more?
Met

Could you tell me if the measured phosphorylation enrichment of TMKSHYMELYD [BBS2_Y644_R643H] reaches 0.8 or more?
Not met

Could you tell me if the measured phosphorylation enrichment of SSENPYATIKD [MEGF10_Y1030] reaches 0.8 or more?
Not met

Could you tell me if the measured phosphorylation enrichment of FADIAYSFRHG [PAH_Y166_N167S_YF] reaches 0.8 or more?
Not met

Could you tell me if the measured phosphorylation enrichment of QSSEGYDLGDR [KIAA1210_Y564_G565D] reaches 0.8 or more?
Met

Could you tell me if the measured phosphorylation enrichment of TDVSLYPSGGT [TENM4_Y399] reaches 0.8 or more?
Not met

Could you tell me if the measured phosphorylation enrichment of VDSGVYAVPPP [BCAR1_Y410] reaches 0.8 or more?
Met

Could you tell me if the measured phosphorylation enrichment of LGNFNYEQRGA [API5_Y497] reaches 0.8 or more?
Not met

###

biological target: c-Src SH2; assay: SH2 binding enrichment of the phosphorylated peptide, bacterial display (enrichment ratio); higher = better substrate or ligand; peptides without Tyr show the background;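 note: peptide library displayed on the E. coli surface as eCPX fusions, selected cells deep-sequenced, score is each peptide's frequency after selection divided by its frequency in the input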
Output t for SH2 binding enrichment not less than 0.8; output f otherwise.

Examples with answers:
SISFDYCRVPM [BST2_Y8_T4I_YF] = f
RVGVDYEGRGC [PLOD1_Y675_G678R] = f
KGIDRYNPENL [EIF3K_Y21] = f

Could you tell me if the measured SH2 binding enrichment of ANNPLYKEVTS [ITGB3_Y773_A776V] reaches 0.8 or more?
f

Could you tell me if the measured SH2 binding enrichment of AKKKMYSRKTK [AGXT_Y231] reaches 0.8 or more?
f

Could you tell me if the measured SH2 binding enrichment of ASGKFYAMKIL [AKT3_Y174_YF] reaches 0.8 or more?
f

Could you tell me if the measured SH2 binding enrichment of FSLIHYASIVD [MYH7_Y582_G584S] reaches 0.8 or more?
t

Could you tell me if the measured SH2 binding enrichment of FSLIHYAGIVD [MYH7_Y582] reaches 0.8 or more?
t

Could you tell me if the measured SH2 binding enrichment of MGCVNYGAYIN [GLB1_Y485_R482C] reaches 0.8 or more?
f

Could you tell me if the measured SH2 binding enrichment of PLGPLYASSNT [INSR_Y992_P997T] reaches 0.8 or more?
f

Could you tell me if the measured SH2 binding enrichment of RLLVVYRWTQR [HBB_Y36_P37R] reaches 0.8 or more?
f

Could you tell me if the measured SH2 binding enrichment of RKPDIYERLAS [MCM4_Y459] reaches 0.8 or more?
f

Could you tell me if the measured SH2 binding enrichment of ESMNTYLQTSP [NAT1_Y208] reaches 0.8 or more?
f

Could you tell me if the measured SH2 binding enrichment of TRVMEYISRLD [CLTCL1_Y1043] reaches 0.8 or more?
f

Could you tell me if the measured SH2 binding enrichment of KTTILYKLKLG [ARF1_Y35] reaches 0.8 or more?
t
